target desc: EP2 receptor (Homo sapiens, UniProt P43116)
Construct: SF295 glioblastoma cells express high endogenous EP2 and no EP4
Sequence (P43116 whole entry): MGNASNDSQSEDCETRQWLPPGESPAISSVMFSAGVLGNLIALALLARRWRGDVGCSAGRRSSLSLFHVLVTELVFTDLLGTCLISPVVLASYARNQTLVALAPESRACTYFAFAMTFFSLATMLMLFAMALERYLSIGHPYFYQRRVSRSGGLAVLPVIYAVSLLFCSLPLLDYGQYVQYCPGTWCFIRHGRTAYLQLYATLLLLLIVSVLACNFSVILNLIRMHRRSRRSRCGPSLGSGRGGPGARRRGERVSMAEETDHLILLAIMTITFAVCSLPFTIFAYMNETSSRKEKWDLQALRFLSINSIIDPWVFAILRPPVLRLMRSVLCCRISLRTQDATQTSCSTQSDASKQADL
assay details: hEP2 cAMP assay (SF295 glioblastoma cells, HTRF cAMP, PGE2 stimulation)
condition set: antagonistic activity
observed property: log10 of IC50 (log10 of the value in nM)
Recorded IC50 (log10, nM)

Examples from the recorded data:
chem smiles	log10 of IC50
CCOc1cc(-c2cc(NCCc3c(C)sc4c(Cl)ccc(Cl)c34)ncn2)ccc1C(=O)O	1.81
COc1cc(Cl)cc2c(CCNc3cc(-c4ccc(C(=O)O)c(OC5CC5)c4)ncn3)c(C)oc12	1.64
CCOc1cc(-c2cc(NCCc3c(C)sc4c(C)ccc(Cl)c34)ncn2)ccc1C(=O)O	2.00

Documented log10 of IC50 of COc1ccc(F)c2c(CCNc3cc(-c4ccc(C(=O)O)c(OC5CCC5)c4)ncn3)c(C)sc12 : 1.66

Sure, the documented log10 of IC50 for CCCOc1cc(-c2cc(NCCc3c(C)sc4c(Cl)ccc(Cl)c34)ncn2)ccc1C(=O)O is 1.73

// log10 of IC50 lookup, compound = CCOc1cc(-c2cc(NCCc3c(C)sc4c(C)ccc(F)c34)ncn2)ccc1CC(=O)O , result: 2.40

The reported log10 of IC50 of the compound CCOc1cc(-c2cc(NCCc3c(C#N)sc4c(C)cc(F)cc34)ncn2)ccc1OCCC(=O)O was 1.57

Per the records, this compound ( CSc1cc(-c2cc(NCCc3c(C)sc4c(C)cc(F)cc34)ncn2)ccc1C(=O)O ) has log10 of IC50 equal to 0.95
